Tested on: human lung cancer strain NCI-H441;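 note: cell proliferation inhibition after four days measured by CellTiter-Glo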
Assay: cells
Conditions: NCI-H441, 96 h, read-out: NCI-H441 IC50 (nM), NCI-H441 cell proliferation, 4 days, CellTiter-Glo
IC50 under 6 nM gets condition met, anything at or over 6 nM gets condition not met.

Solved cases below.
State whether 6 nM exceeds IC50 recorded for CCO[C@@H]1C[C@H]2C(=O)NC3(CC(C)(C)C3)C(=O)N(C)[C@@H](C3CCCC3)C(=O)N(C)[C@H](C(=O)N(C)CC)CC(=O)N(C)[C@@H](CC(F)F)C(=O)N[C@@H]([C@@H](C)CC)C(=O)N(C)CC(=O)N(C)[C@H]3C/C=C\CCN(C3=O)[C@@H](Cc3ccc(C(F)(F)F)cc3)C(=O)N(C)CC(=O)N[C@@H](CCc3cc(F)c(C(F)(F)F)c(F)c3)C(=O)N2C1 [PP1643] .
condition met

Lab note: confirm whether the reported IC50 for this molecule is below 6 nM, equality not counting. molecule: CCO[C@@H]1C[C@H]2C(=O)NC3(CC(F)(F)C3)C(=O)N(C)[C@@H](C3CCCC3)C(=O)N(C)[C@H](C3CCC3)CC(=O)N(C)[C@@H](CC3CC3)C(=O)N[C@@H]([C@@H](C)CC)C(=O)N(C)CC(=O)N(C)[C@H]3C/C=C\CCN(C3=O)[C@@H](Cc3ccc(C(F)(F)F)cc3)C(=O)N(C)CC(=O)N[C@@H](CCc3cc(F)c(C(F)(F)F)c(F)c3)C(=O)N2C1 [PP1639]
condition not met

Lab note: confirm whether the reported IC50 for this molecule is below 6 nM, equality not counting. molecule: CC[C@H](C)[C@@H]1NC(=O)[C@H](CC)N(C)C(=O)C[C@@H](C(=O)N(C)C)N(C)C(=O)[C@H](C2CCCC2)N(C)C(=O)C2(CCC2)NC(=O)[C@@H]2CCCN2C(=O)[C@H](CCc2cc(C)c(Cl)c(C)c2)NC(=O)CN(C)C(=O)[C@H](Cc2ccc(C(F)(F)F)cc2)N2CC/C=C\C[C@@H](C2=O)N(C)C(=O)CN(C)C1=O [PP1822]
condition not met

Bench note: check whether CCCN(C)C(=O)[C@@H]1CC(=O)N(C)[C@@H](CC2CC2)C(=O)N[C@@H]([C@@H](C)CC)C(=O)N(C)CC(=O)N(C)[C@H]2C/C=C\CCN(C2=O)[C@@H](Cc2ccc(C(F)(F)F)cc2)C(=O)N(C)CC(=O)N[C@@H](CCc2cc(F)c(C(F)(F)F)c(F)c2)C(=O)N2C[C@H](OCC)C[C@H]2C(=O)NC2(CC(F)(F)C2)C(=O)N(C)[C@@H](C2CCCC2)C(=O)N1C [PP1739] shows IC50 below 6 nM
condition met

Is 6 nM strictly greater than the molecule's reported IC50? molecule: CC[C@H](C)[C@@H]1NC(=O)[C@H](CC2CC2)N(C)C(=O)C[C@@H](C(=O)N(C)C)N(C)C(=O)[C@H](C2CCCC2)N(C)C(=O)C2(CCC2)N(C)C(=O)[C@@H]2CCCN2C(=O)[C@H](CCc2cc(F)c(C(F)(F)F)c(F)c2)NC(=O)CN(C)C(=O)[C@H](Cc2ccc(C)cc2)N2CC/C=C\C[C@@H](C2=O)N(C)C(=O)CN(C)C1=O [PP1796]
condition met

A record lists CCCOC[C@H]1C(=O)N[C@@H]([C@@H](C)CC)C(=O)N(C)CC(=O)N(C)[C@H]2C/C=C\CCN(C2=O)[C@@H](Cc2ccc(C(F)(F)F)cc2)C(=O)N(C)CC(=O)N[C@@H](CCc2ccc(C(F)(F)F)c(OC)c2)C(=O)N2C[C@@H](C)C[C@H]2C(=O)NC2(CC(C)(C)C2)C(=O)N(C)[C@@H](C2CCCC2)C(=O)N(C)[C@H](C(=O)N(C)CC)CC(=O)N1C [PP1995] . Is its IC50 below 6 nM?
condition not met

Bench note: check whether CCCN(C)C(=O)[C@@H]1CC(=O)N(C)[C@@H](CC(F)F)C(=O)N[C@@H]([C@@H](C)CC)C(=O)N(C)CC(=O)N(C)[C@H]2C/C=C\CCN(C2=O)[C@@H](Cc2ccc(C(F)(F)F)cc2)C(=O)N(C)CC(=O)N[C@@H](CCc2ccc(C(F)(F)F)c(OC)c2)C(=O)N2C[C@@H](C)C[C@H]2C(=O)NC2(CCC2)C(=O)N(C)[C@@H](C2CCCC2)C(=O)N1C [PP2024] shows IC50 below 6 nM
condition not met

Strictly below 6 nM: is that where IC50 of C#CC[C@H]1C(=O)N[C@@H]([C@@H](C)CC)C(=O)N(C)CC(=O)N(C)[C@H]2C/C=C\CCN(C2=O)[C@@H](Cc2ccc(C(F)(F)F)cc2)C(=O)N(C)CC(=O)N[C@@H](CCc2ccc(C(F)(F)F)c(OC)c2)C(=O)N2C[C@H](OCC)C[C@H]2C(=O)NC2(CC(C)(C)C2)C(=O)N(C)[C@@H](C2CCCC2)C(=O)N(C)[C@H](C(=O)N(C)C)CC(=O)N1C [PP1677] sits?
condition met

Is the reported IC50 for CC[C@H](C)[C@@H]1NC(=O)[C@H](CC2CC2)N(C)C(=O)C[C@@H](C(=O)N(C)C)N(C)C(=O)[C@H](C2CCCC2)N(C)C(=O)C2(CCC2)NC(=O)[C@@H]2C[C@H](C)CN2C(=O)[C@H](CCc2ccc(C(F)(F)F)c(OC)c2)NC(=O)CN(C)C(=O)[C@H](Cc2ccc(C)cc2)N2CC/C=C\C[C@@H](C2=O)N(C)C(=O)CN(C)C1=O [PP1861] strictly below 6 nM?
condition not met

API: query returns whether the molecule falls strictly under 6 nM in IC50. Query: CC[C@H](C)[C@@H]1NC(=O)[C@H](CC2CC2)N(C)C(=O)C[C@@H](C(=O)N(C)C)N(C)C(=O)[C@H](C2CCCC2)N(C)C(=O)C2(CCC2)N(C)C(=O)[C@@H]2C[C@@H](C)CN2C(=O)[C@H](CCc2cc(F)c(C(F)(F)F)c(F)c2)NC(=O)CN(C)C(=O)[C@H](Cc2ccc(C)cc2)N2CC/C=C\C[C@@H](C2=O)N(C)C(=O)[C@@H]2CCCN2C1=O [PP1801]
condition not met

# input for lookup
Criterion: IC50 strictly below 6 nM. Is it met by CCC[C@H]1C(=O)N[C@@H]([C@@H](C)CC)C(=O)N(C)CC(=O)N(C)[C@H]2C/C=C\CCN(C2=O)[C@@H](Cc2ccc(C)cc2)C(=O)N(C)CC(=O)N[C@@H](CCc2cc(F)c(C(F)(F)F)c(F)c2)C(=O)N2C[C@@H](C)C[C@H]2C(=O)NC2(CCC2)C(=O)N(C)[C@@H](C2CCCC2)C(=O)N(C)[C@H](C(=O)N(C)CC)CC(=O)N1C [PP1860] ?
condition not met

* * *

Task for the reader: assign each of the following compounds its reported pKd.
Target: GDP-bound KRAS wild-type protein (Homo sapiens, UniProt P01116)
Sequence (P01116 whole entry): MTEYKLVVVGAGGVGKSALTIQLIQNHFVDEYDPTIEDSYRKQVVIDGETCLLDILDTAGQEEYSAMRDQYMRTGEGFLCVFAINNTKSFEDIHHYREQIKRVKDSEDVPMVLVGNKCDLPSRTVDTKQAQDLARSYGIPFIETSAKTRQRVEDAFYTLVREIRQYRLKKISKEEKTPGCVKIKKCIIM
Experiment: Binding to KRAS by surface plasmon resonance (SPR), Single Cycle Kinetics
Details: SPR Single Cycle Kinetics, GDP-bound KRAS wild-type protein, 1:1 binding model; read-out: KRAS KD
One number for each entry, as −log10 of the molar value.

Check out these entries, answers already filled in.
Reported pKd for CC[C@H](C)[C@@H]1NC(=O)[C@H](CC(C)C)N(C)C(=O)C[C@@H](C(=O)N2CCOCC2)N(C)C(=O)[C@H](C2CCCC2)N(C)C(=O)C2(CCCC2)NC(=O)[C@@H]2CCCN2C(=O)[C@H](CCc2cc(F)c(C(F)(F)F)c(F)c2)NC(=O)CN(C)C(=O)[C@H](Cc2ccc(C(F)(F)F)cc2)N2CCCC[C@@H](C2=O)N(C)C(=O)CNC1=O : what is it?
9.96

Need pKd of CCC[C@H]1C(=O)N[C@@H]([C@@H](C)CC)C(=O)N(C)CC(=O)N(C)[C@H]2C/C=C\CCN(C2=O)[C@@H](Cc2ccc(C(F)(F)F)cc2)C(=O)N(C)CC(=O)N[C@@H](CCc2cc(Cl)c3sccc3c2)C(=O)N2C[C@H](OCC)C[C@H]2C(=O)NC2(CC(C)(C)C2)C(=O)N(C)[C@@H](C2CCCC2)C(=O)N(C)[C@H](C(=O)N(C)C)CC(=O)N1C , thanks.
10.28

Moving on to the next compound.
// lookup pKd for CC[C@H](C)[C@@H]1NC(=O)[C@H](CC(C)C)N(C)C(=O)C[C@@H](C(=O)N2CCOCC2)N(C)C(=O)[C@H](C2CCCC2)N(C)C(=O)C2(CCCC2)NC(=O)[C@@H]2C[C@H](OC)CN2C(=O)[C@H](CCc2cc(F)c(C(F)(F)F)c(F)c2)NC(=O)CN(C)C(=O)[C@H](Cc2ccc(C(F)(F)F)cc2)N2CCCC[C@@H](C2=O)N(C)C(=O)CN(C)C1=O
9.96
